# assayed.system: USP30 (Homo sapiens, UniProt Q70CQ3)
# Construct: purchased Boston Biochem E582
# Sequence (Q70CQ3 57-517 limits assumed): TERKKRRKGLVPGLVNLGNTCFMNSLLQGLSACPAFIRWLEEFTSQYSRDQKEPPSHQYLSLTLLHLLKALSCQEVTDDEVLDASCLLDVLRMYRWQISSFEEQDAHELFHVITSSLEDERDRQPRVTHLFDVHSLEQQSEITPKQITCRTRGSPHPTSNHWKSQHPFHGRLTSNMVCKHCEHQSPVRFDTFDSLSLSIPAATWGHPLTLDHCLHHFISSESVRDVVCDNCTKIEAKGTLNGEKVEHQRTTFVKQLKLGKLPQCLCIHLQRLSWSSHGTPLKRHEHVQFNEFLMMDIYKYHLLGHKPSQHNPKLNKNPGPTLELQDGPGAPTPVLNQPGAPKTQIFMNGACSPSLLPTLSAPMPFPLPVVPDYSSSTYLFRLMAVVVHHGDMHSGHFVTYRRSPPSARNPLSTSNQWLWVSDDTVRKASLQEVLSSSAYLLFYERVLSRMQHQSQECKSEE
# assay.notes: USP30 biochemical IC50 assay (fluorescence polarisation)
# condition.description: USP30 biochemical IC50 assay; read-out: USP30 IC50
measured.parameter: pIC50
# log scale: pIC50 equals minus log10 of the concentration in mol/L

molecule=COC[C@H]1C[C@@H](NC(=O)c2ncc(-c3cccc(C(F)(F)F)c3)o2)CN1C#N measurement=7.82

Could you share which pIC50 value was measured for COC[C@@H]1C[C@@H](NC(=O)c2nnc(-c3cc(C(F)(F)F)ccc3OC)o2)CN1C#N ?
7.39

Looking for the measured pIC50 of N#CN1C[C@H](NC(=O)c2ncc(-c3cccc(C(F)(F)F)c3)o2)C[C@H]1Cn1ccnn1 , can you help?
8.40

State the recorded pIC50 for this entry: C[C@@H]1C[C@@H](NC(=O)c2nnc(-c3cc(C(F)(F)F)ccc3OC3CC3)o2)CN1C#N
7.14

Consider the molecule COC[C@@H]1C[C@@H](NC(=O)c2nnc(-c3cc(C(F)(F)F)ccc3OC3CC3)o2)CN1C#N and give its measured pIC50.
7.39

// pIC50 lookup, key: N#CN1CC[C@@H](NC(=O)c2cc(-c3ccc(C(F)(F)F)cc3)no2)C1 [Reference Example A, reference compound]
6.92

Request the reported pIC50 associated with C[C@@H]1C[C@@H](NC(=O)c2nnc(-c3cccc(C(F)(F)F)c3)o2)CN1C#N
7.48

----------
# assay.notes: WT-MDCK (wild-type) in vitro flux
# Type: in vitro ADME
# condition.description: dog, A-B
# Description: WT-MDCK (wild-type) in vitro flux.
measured.parameter: Papp A→B (×10⁻⁶ cm/s)
Output spec: scalar in ×10⁻⁶ cm/s, unitless text.

Item under review: COC[C@@H]1C[C@@H](NC(=O)c2ncc(-c3cccc(C(F)(F)F)c3)o2)CN1C#N . Reported Papp A→B?
11.8

----------
# assayed.system: Cathepsin B (Homo sapiens, UniProt P07858)
# assay.notes: Cathepsin B IC50
# Assay type: biochemical
Listing of recorded IC50 by entry.
Return type: number; implicit unit µM.

compound=COC[C@@H]1C[C@@H](NC(=O)c2nnc(-c3cccc(C(F)(F)F)c3)o2)CN1C#N measured_parameter=IC50 measurement=116
compound=COC[C@@H]1C[C@@H](NC(=O)c2ncc(-c3cccc(C(F)(F)F)c3)o2)CN1C#N measured_parameter=IC50 measurement=122
compound="N#CN1CC[C@@H](NC(=O)c2cc(-c3ccc(C(F)(F)F)cc3)no2)C1 [Reference Example A, reference compound]" measured_parameter=IC50 measurement=0.85

// below: IC50 requested for another compound
Bench note: what IC50 did C[C@@H]1C[C@@H](NC(=O)c2ncc(-c3cccc(C(F)(F)F)c3)o2)CN1C#N show?
79

----------
# assayed.system: Cathepsin L (Homo sapiens, UniProt P07711)
# Sequence (P07711 114-333, species assumed): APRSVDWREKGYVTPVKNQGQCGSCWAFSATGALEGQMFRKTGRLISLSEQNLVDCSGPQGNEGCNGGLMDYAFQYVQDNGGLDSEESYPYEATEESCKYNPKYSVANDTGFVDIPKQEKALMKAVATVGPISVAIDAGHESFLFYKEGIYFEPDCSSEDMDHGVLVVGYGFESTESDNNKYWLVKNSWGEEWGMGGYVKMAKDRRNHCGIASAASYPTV
# assay.notes: Cathepsin L IC50
# Assay type: biochemical
# condition.description: read-out: Cathepsin IC50 (μM) Cathepsin L
measured.parameter: IC50 (µM)
Enter your answer as a number in µM; do not include the unit.

Examples with their reported IC50 follow.
molecule="C[C@@H]1C[C@@H](NC(=O)c2ncc(-c3cccc(C(F)(F)F)c3)o2)CN1C#N [Example 2]" measurement=7.9
molecule="COC[C@@H]1C[C@@H](NC(=O)c2ncc(-c3cc(C(F)(F)F)ccc3OC3CC3)o2)CN1C#N [Example 9]" measurement=18.2

Now consider a different molecule.
Enter reported IC50 observed with Cathepsin L (Homo sapiens, UniProt P07711) for COC[C@@H]1C[C@@H](NC(=O)c2ncc(-c3cccc(C(F)(F)F)c3)o2)CN1C#N [Example 1]
30.4

----------
# assayed.system: USP30 (Homo sapiens, UniProt Q70CQ3)
# Construct: purchased Boston Biochem E582
# assay.notes: USP30 biochemical IC50 assay (fluorescence polarisation)
# condition.description: read-out: DUB IC50 (μM) USP30
measured.parameter: IC50 (µM)
# value in µM; strip the unit string

# example entries with known answers
molecule=C[C@@H]1C[C@@H](NC(=O)c2ncc(-c3cccc(C(F)(F)F)c3)o2)CN1C#N measured_parameter=IC50 reading_unit=µM measurement=0.008
molecule="N#CN1CC[C@H](C(=O)Nc2cn(-c3cccc(C(F)(F)F)c3)cn2)C1 [Reference Example B, reference compound]" measured_parameter=IC50 reading_unit=µM measurement=0.3

Find the recorded IC50 belonging to COC[C@H]1C[C@@H](NC(=O)c2ncc(-c3cccc(C(F)(F)F)c3)o2)CN1C#N and report it.
0.015

Which IC50 value belongs to N#CN1CC[C@@H](NC(=O)c2cc(-c3ccc(C(F)(F)F)cc3)no2)C1 [Reference Example A, reference compound] ?
0.12

----------
# assay.notes: PK mouse 2 mg/kg iv
# Assay type: in vivo
# condition.description: plasma, read-out: Cl plasma
measured.parameter: clearance (mL/min/kg)
Enter your answer as a number in mL/min/kg; do not include the unit.

Report clearance for COC[C@@H]1C[C@@H](NC(=O)c2ncc(-c3cccc(C(F)(F)F)c3)o2)CN1C#N please.
19

----------
# assay.notes: Log D
# Type: physicochemical
# condition.description: pH 7.4; read-out: Log D measured at pH 7.4
measured.parameter: logD
Provide a numeric answer; units are not to be included.

Tell me the measured logD of COC[C@@H]1C[C@@H](NC(=O)c2ncc(-c3cccc(C(F)(F)F)c3)o2)CN1C#N [Example 1] , please.
2.6

----------
# Tested on: P-glycoprotein (human MDR1)
# assay.notes: MDR1-MDCK flux assay
# Format: in vitro ADME, Canine
# condition.description: dog, read-out: MDR1-MDCK Effective efflux ratio
measured.parameter: efflux ratio
# answer = number (no unit)

efflux ratio of COC[C@@H]1C[C@@H](NC(=O)c2ncc(-c3cccc(C(F)(F)F)c3)o2)CN1C#N [Example 1] on P-glycoprotein (human MDR1)?
1.2

----------
# Test system: Cathepsins B, K, L, S, V
# assay.notes: Cathepsin panel IC50 (summary over B, K, L, S, V)
# Type: biochemical
# condition.description: range over the five cathepsins; read-out: Cathepsin IC50 (μM) B, K, L, S, V
measured.parameter: IC50

compound="COC[C@H]1C[C@@H](NC(=O)c2ncc(-c3cccc(C(F)(F)F)c3)o2)CN1C#N [Example 12]" assayed_system="Cathepsins B, K, L, S, V" measurement="> 30 µM"
compound="COC[C@@H]1C[C@@H](NC(=O)c2ncc(-c3cc(C(F)(F)F)ccc3OC3CC3)o2)CN1C#N [Example 9]" assayed_system="Cathepsins B, K, L, S, V" measurement="≥ 9.9 µM"

Which IC50 value belongs to COC[C@@H]1C[C@@H](NC(=O)c2ncc(-c3cccc(C(F)(F)F)c3)o2)CN1C#N [Example 1] ?
10.2 to 138 µM

----------
# System: USP2, USP6, USP10, USP16, USP21, USP22, USP25, USP28
# assay.notes: DUB selectivity panel IC50
# Type: biochemical
# condition.description: range over the eight DUBs; read-out: DUB IC50 (μM) USP2, USP6, USP10, USP16, USP21, USP22, USP25, USP28
measured.parameter: IC50

Would you please look over these solved cases?
compound=COC[C@@H]1C[C@@H](NC(=O)c2nnc(-c3cccc(C(F)(F)F)c3)o2)CN1C#N measured_parameter=IC50 measurement="4.6 to 78.9 µM"
compound=COC[C@@H]1C[C@@H](NC(=O)c2ncc(-c3cc(C(F)(F)F)ccc3OC3CC3)o2)CN1C#N measured_parameter=IC50 measurement="2.9 to 135 µM"
compound=C[C@@H]1C[C@@H](NC(=O)c2ncc(-c3cccc(C(F)(F)F)c3)o2)CN1C#N measured_parameter=IC50 measurement="17.2 to 108 µM"
compound=COC[C@@H]1C[C@@H](NC(=O)c2ncc(-c3cccc(C(F)(F)F)c3)o2)CN1C#N measured_parameter=IC50 measurement="16 to 97.9 µM"
compound=COC[C@H]1C[C@@H](NC(=O)c2ncc(-c3cccc(C(F)(F)F)c3)o2)CN1C#N measured_parameter=IC50 measurement="> 300 µM"

I am curious: what IC50 value has been reported for N#CN1CC[C@H](C(=O)Nc2cn(-c3cccc(C(F)(F)F)c3)cn2)C1 [Reference Example B, reference compound] ?
3.8 to 59.7 µM

----------
# assayed.system: UniProt:O60911
# Sequence (O60911 114-334, species assumed): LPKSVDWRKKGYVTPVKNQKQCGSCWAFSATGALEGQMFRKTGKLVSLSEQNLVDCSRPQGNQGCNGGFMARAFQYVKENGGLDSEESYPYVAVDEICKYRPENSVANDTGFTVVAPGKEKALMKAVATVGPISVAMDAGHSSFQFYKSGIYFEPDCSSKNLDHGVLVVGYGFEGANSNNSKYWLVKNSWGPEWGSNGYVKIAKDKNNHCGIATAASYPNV
# assay.notes: Cathepsin V IC50
# Assay type: biochemical
Readings of IC50 for the listed molecules

Can you share its IC50? I mean this molecule: N#CN1CC[C@H](C(=O)Nc2cn(-c3cccc(C(F)(F)F)c3)cn2)C1 [Reference Example B, reference compound]
2.5 µM

Look up IC50 for this molecule: COC[C@@H]1C[C@@H](NC(=O)c2ncc(-c3cccc(C(F)(F)F)c3)o2)CN1C#N
105 µM

These data points were gathered from patent US20230219939A1.
